Biological target: Transient receptor potential cation channel subfamily V member 1 (Homo sapiens, UniProt Q8NER1)
Sequence (Q8NER1 whole entry): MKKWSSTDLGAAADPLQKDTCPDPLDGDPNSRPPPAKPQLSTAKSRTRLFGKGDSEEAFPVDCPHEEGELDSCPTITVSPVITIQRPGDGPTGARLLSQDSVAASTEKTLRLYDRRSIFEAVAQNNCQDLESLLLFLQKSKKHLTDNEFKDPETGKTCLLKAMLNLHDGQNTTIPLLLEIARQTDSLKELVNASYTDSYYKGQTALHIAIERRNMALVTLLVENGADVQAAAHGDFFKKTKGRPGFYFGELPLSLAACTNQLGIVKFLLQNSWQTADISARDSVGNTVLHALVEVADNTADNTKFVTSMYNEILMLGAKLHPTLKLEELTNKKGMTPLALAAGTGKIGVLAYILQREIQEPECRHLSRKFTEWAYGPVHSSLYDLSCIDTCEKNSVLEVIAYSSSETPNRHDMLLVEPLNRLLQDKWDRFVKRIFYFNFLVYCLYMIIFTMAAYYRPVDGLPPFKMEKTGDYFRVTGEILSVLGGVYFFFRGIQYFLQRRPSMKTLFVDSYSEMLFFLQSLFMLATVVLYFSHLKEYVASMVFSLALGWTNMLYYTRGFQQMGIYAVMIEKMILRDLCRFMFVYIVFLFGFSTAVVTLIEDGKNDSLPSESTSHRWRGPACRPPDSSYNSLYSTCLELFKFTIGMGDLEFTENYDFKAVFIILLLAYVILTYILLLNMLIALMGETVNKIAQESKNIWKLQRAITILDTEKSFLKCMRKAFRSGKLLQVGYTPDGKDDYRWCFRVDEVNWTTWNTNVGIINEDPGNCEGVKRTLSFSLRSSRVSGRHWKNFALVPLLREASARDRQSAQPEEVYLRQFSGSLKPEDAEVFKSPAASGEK
Experiment: Antagonist activity at human TRPV1 expressed in CHO cells assessed as inhibition of capsaicin-induced increase in intracellular Ca2+ level by FLIPR assay
Format: cell-based
# key: entry, value: log10(Ki)
Friendly reminder: values = log10 of Ki, unit nM.

Reference set, count: 3
C[C@H](C(=O)NCc1ccc(C(F)(F)F)nc1C1CCC(C)(C)CC1)c1ccc(NS(C)(=O)=O)c(F)c1 = -0.52
C[C@H](C(=O)NCc1ccc(C(F)(F)F)nc1C1=CCC(C)(C)CC1)c1ccc(NS(C)(=O)=O)c(F)c1 = -1.00
C[C@H](C(=O)NCc1ccc(C(F)(F)F)nc1C1=CCC(C(C)(C)C)CC1)c1ccc(NS(C)(=O)=O)c(F)c1 (stereo partly drawn) = -1.00

# log10(Ki) of "C[C@H](C(=O)NCc1ccc(C(F)(F)F)nc1C1CCCCC1)c1ccc(NS(C)(=O)=O)c(F)c1" = -0.52

---

Molecular target: Transient receptor potential cation channel subfamily V member 1 (Homo sapiens)
Test: Antagonist activity at human TRPV1 expressed in CHO cells assessed as inhibition of heat-induced increase in intracellular Ca2+ level by FLIPR assay
Reported Endpoint: IC50 (µM)
Write it as a number; the unit µM goes unstated.

For the compound CC(C(=O)NCc1ccc(C(F)(F)F)nc1C1CCCCC1)c1ccc(NS(C)(=O)=O)c(F)c1 (stereo unspecified) , the measured IC50 on Transient receptor potential cation channel subfamily V member 1 (Homo sapiens) was 0.0141

---

Biological target: Transient receptor potential cation channel subfamily V member 1 (Homo sapiens)
Test: Antagonist activity at human TRPV1 expressed in CHO cells assessed as inhibition of capsaicin-induced increase in intracellular Ca2+ level by FLIPR assay
Type: cell-based
# key: entry, value: pKi
Keep in mind that pKi stands for -log10 of concentration in molar terms.

CC1CC=C(c2nc(C(F)(F)F)ccc2CNC(=O)[C@@H](C)c2ccc(NS(C)(=O)=O)c(F)c2)CC1 (stereo partly specified) = 9.70
CC(C(=O)NCc1ccc(C(F)(F)F)nc1C1=CCC(C)(C)CC1)c1ccc(NS(C)(=O)=O)c(F)c1 (racemic) = 9.70
CC(C(=O)NCc1ccc(C(F)(F)F)nc1C1=CCC(C(C)(C)C)CC1)c1ccc(NS(C)(=O)=O)c(F)c1 (racemic) = 9.70
CC(C(=O)NCc1ccc(C(F)(F)F)nc1C1CCC(C)(C)CC1)c1ccc(NS(C)(=O)=O)c(F)c1 (racemic) = 9.40
CC1CCC(c2nc(C(F)(F)F)ccc2CNC(=O)C(C)c2ccc(NS(C)(=O)=O)c(F)c2)CC1 (stereo unspecified) = 9.40

# pKi of CCC1CCC(c2nc(C(F)(F)F)ccc2CNC(=O)[C@@H](C)c2ccc(NS(C)(=O)=O)c(F)c2)CC1 (stereo partly specified) = 9.70

# pKi of CC(C(=O)NCc1ccc(C(F)(F)F)nc1C1CCC(F)(F)CC1)c1ccc(NS(C)(=O)=O)c(F)c1 (stereo unspecified) = 8.82

# pKi of CC(C(=O)NCc1ccc(C(F)(F)F)nc1[C@H]1CC[C@@H](C(C)(C)C)CC1)c1ccc(NS(C)(=O)=O)c(F)c1 (stereo partly specified) = 8.89

# pKi of CC(C(=O)NCc1ccc(C(F)(F)F)nc1[C@H]1CC[C@H](C(C)(C)C)CC1)c1ccc(NS(C)(=O)=O)c(F)c1 (stereo partly specified) = 9.52

# pKi of CCC1CCC(c2nc(C(F)(F)F)ccc2CNC(=O)C(C)c2ccc(NS(C)(=O)=O)c(F)c2)CC1 (racemic) = 9.52

# pKi of CCCc1nc(C(F)(F)F)ccc1CNC(=O)C(C)c1ccc(NS(C)(=O)=O)c(F)c1 (stereo unspecified) = 7.64

---

Target: Transient receptor potential cation channel subfamily V member 1 (Homo sapiens, UniProt Q8NER1)
Test: Antagonist activity at human TRPV1 expressed in CHO cells assessed as inhibition of capsaicin-induced increase in intracellular Ca2+ level by FLIPR assay
Format: cell-based
Reported Endpoint: Ki (nM)
Write it as a number; the unit nM goes unstated.

C[C@H](C(=O)NCc1ccc(C(F)(F)F)nc1C1CC2CCC1C2)c1ccc(NS(C)(=O)=O)c(F)c1 (some centres undefined) = 0.8
CC1C=C(c2nc(C(F)(F)F)ccc2CNC(=O)C(C)c2ccc(NS(C)(=O)=O)c(F)c2)CCC1 (centres undefined) = 0.2

# Ki of CC(C(=O)NCc1ccc(C(F)(F)F)nc1C1CCC(C(C)(C)C)CC1)c1ccc(NS(C)(=O)=O)c(F)c1 (centres undefined) = 0.3

# Ki of CC(C(=O)NCc1ccc(C(F)(F)F)nc1C1CC2CCC1C2)c1ccc(NS(C)(=O)=O)c(F)c1 (racemic) = 1.5
